Heads up, these molecules all have IC50 values measured for Coagulation factor X (Homo sapiens).
Entry rule: numbers only, all in nM.

What measured IC50 goes with CC(=O)Nc1ccc(C[C@H](NC(=O)[C@@H](Cc2ccccc2)NS(=O)(=O)Cc2ccccc2)C(=O)N[C@@H](CCCNC(=N)N)C(=O)c2nccs2)cc1 ?
300

What measured IC50 goes with N=C(N)NCCC[C@H](NC(=O)[C@H](Cc1ccc(-c2ccccc2)cc1)NC(=O)[C@@H](Cc1ccccc1)NS(=O)(=O)Cc1ccccc1)C(=O)c1nccs1 ?
3140

What measured IC50 goes with N=C(N)NCCC[C@H](NC(=O)[C@H](Cc1ccc(Cl)cc1)NC(=O)[C@@H](Cc1ccccc1)NS(=O)(=O)Cc1ccccc1)C(=O)c1nccs1 ?
610

----------
Heads up, these compounds all have pIC50 values measured for Prothrombin (Homo sapiens).
Scale note: pIC50 = -log10(concentration in M).

What measured pIC50 goes with N=C(N)NCCC[C@H](NC(=O)[C@H](CCc1ccccc1)NC(=O)[C@@H](Cc1ccccc1)NS(=O)(=O)Cc1ccccc1)C(=O)c1nccs1 ?
4.98

What measured pIC50 goes with N=C(N)NCCC[C@H](NC(=O)[C@H](Cc1cccc(-c2ccccc2)c1)NC(=O)[C@@H](Cc1ccccc1)NS(=O)(=O)Cc1ccccc1)C(=O)c1nccs1 ?
5.77

What measured pIC50 goes with N=C(N)NCCC[C@H](NC(=O)[C@H](Cc1ccc(I)cc1)NC(=O)[C@@H](Cc1ccccc1)NS(=O)(=O)Cc1ccccc1)C(=O)c1nccs1 ?
5.20

What measured pIC50 goes with N=C(N)NCCC[C@H](NC(=O)[C@H](Cc1ccc(Br)cc1)NC(=O)[C@@H](Cc1ccccc1)NS(=O)(=O)Cc1ccccc1)C(=O)c1nccs1 ?
5.50

What measured pIC50 goes with CC(=O)Nc1ccc(C[C@H](NC(=O)[C@@H](Cc2ccccc2)NS(=O)(=O)Cc2ccccc2)C(=O)N[C@@H](CCCNC(=N)N)C(=O)c2nccs2)cc1 ?
5.34

What measured pIC50 goes with N=C(N)NCCC[C@H](NC(=O)[C@H](CC1CC1)NC(=O)[C@@H](Cc1ccccc1)NS(=O)(=O)Cc1ccccc1)C(=O)c1nccs1 ?
5.04

----------
Can you tell me IC50 for the items I'm about to list?
Sequence of the target: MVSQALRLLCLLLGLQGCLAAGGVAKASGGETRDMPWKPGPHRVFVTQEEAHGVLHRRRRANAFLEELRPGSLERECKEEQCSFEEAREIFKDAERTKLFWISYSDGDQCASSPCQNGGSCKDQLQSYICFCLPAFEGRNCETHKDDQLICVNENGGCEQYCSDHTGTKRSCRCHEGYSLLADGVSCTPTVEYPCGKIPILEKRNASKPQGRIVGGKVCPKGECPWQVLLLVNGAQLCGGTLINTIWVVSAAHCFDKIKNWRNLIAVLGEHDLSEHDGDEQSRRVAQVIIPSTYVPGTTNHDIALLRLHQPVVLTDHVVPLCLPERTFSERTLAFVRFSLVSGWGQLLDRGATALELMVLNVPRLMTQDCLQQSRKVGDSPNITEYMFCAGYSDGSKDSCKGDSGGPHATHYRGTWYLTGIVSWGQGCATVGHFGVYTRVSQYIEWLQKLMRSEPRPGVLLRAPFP

What measured IC50 goes with N=C(N)NCCC[C@H](NC(=O)[C@H](Cc1ccc(Br)cc1)NC(=O)[C@@H](Cc1ccccc1)NS(=O)(=O)Cc1ccccc1)C(=O)c1nccs1 ?
760 nM

What measured IC50 goes with N=C(N)NCCC[C@H](NC(=O)[C@H](Cc1cc(F)cc(F)c1)NC(=O)[C@@H](Cc1ccccc1)NS(=O)(=O)Cc1ccccc1)C(=O)c1nccs1 ?
190 nM

What measured IC50 goes with CC(=O)Nc1ccc(C[C@H](NC(=O)[C@@H](Cc2ccccc2)NS(=O)(=O)Cc2ccccc2)C(=O)N[C@@H](CCCNC(=N)N)C(=O)c2nccs2)cc1 ?
570 nM

What measured IC50 goes with N=C(N)NCCC[C@H](NC(=O)[C@H](CCc1ccccc1)NC(=O)[C@@H](Cc1ccccc1)NS(=O)(=O)Cc1ccccc1)C(=O)c1nccs1 ?
900 nM

What measured IC50 goes with N=C(N)NCCC[C@H](NC(=O)[C@H](Cc1cn(Cc2ccccc2)cn1)NC(=O)[C@@H](Cc1ccccc1)NS(=O)(=O)Cc1ccccc1)C(=O)c1nccs1 ?
9970 nM

What measured IC50 goes with N=C(N)NCCC[C@H](NC(=O)[C@H](CC1CC1)NC(=O)[C@@H](Cc1ccccc1)NS(=O)(=O)Cc1ccccc1)C(=O)c1nccs1 ?
820 nM
